Target: ORL1 receptor (Homo sapiens, UniProt P41146)
Sequence (P41146 whole entry): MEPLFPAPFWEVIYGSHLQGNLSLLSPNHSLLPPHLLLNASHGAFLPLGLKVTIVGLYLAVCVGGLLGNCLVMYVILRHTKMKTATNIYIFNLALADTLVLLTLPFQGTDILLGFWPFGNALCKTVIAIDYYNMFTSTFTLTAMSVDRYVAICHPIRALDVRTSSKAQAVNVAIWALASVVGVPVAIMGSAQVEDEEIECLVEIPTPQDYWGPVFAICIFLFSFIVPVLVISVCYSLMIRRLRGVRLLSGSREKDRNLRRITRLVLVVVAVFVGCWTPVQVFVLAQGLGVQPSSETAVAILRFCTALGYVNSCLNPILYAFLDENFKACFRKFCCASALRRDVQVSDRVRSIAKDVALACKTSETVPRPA
Assay: Receptor binding assay with 3H-nociceptin/orphanin FQ using membranes of recombinant CHO-ORL1 cells
Design: expressed in transfected cells; host or cells: recombinant CHO-ORL1 cells (membranes)
Where a name gives a salt, the structure may show the parent alone.

[
  {
    "MOLECULE": "C=CCN1CCC23c4c5ccc(O)c4OC2c2c(c4ccccc4n2Cc2ccccc2Cl)CC3(O)C1C5 (stereo not shown) [Example 1, hydrochloride]",
    "MEASURED_ON": "ORL1 receptor (Homo sapiens, UniProt P41146)",
    "RESULT_UNITS": "nM",
    "Ki": 449
  }
]
